target: Neuronal acetylcholine receptor subunit alpha-7 (Homo sapiens, UniProt P36544); assay: Antagonist activity at human alpha-7 nAChR in tsA201 cells coexpressed with Ric3 by FMP assay; assay type: functional, cell-based; settings: read-out: IC50
Sequence (P36544 whole entry): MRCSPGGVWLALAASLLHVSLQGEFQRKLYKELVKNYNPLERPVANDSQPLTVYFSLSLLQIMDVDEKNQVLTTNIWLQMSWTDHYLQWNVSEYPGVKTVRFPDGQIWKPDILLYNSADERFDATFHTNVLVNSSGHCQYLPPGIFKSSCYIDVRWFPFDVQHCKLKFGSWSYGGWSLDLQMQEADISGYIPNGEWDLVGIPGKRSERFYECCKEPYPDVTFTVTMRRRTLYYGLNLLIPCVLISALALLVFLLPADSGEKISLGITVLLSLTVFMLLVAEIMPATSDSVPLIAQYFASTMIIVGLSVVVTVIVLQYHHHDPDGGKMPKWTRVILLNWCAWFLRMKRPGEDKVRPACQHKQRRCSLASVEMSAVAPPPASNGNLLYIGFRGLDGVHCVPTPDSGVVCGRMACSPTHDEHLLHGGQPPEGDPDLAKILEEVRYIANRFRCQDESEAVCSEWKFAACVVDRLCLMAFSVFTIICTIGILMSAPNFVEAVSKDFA
For each of the compounds below, state its IC50.
Report the value in nM with no unit label.

Bench note: what IC50 did C[N+]12CCC34c5ccccc5N5/C=C6/[C@H]7C[C@H]8[C@@]9(CC[N+]8(C)C/C7=C/CO)c7ccccc7N(/C=C(/[C@@H](C[C@@H]31)/C(=C\CO)C2)[C@H]54)[C@@H]69.[Cl-].[Cl-] (some centres undefined) [TOXIFERINE] show?
9500

Bench note: what IC50 did OC/C=C1/C[N+]2(C3C=CCCC3)CC[C@@H]3[C@@H]4/C(=C\N5c6ccccc6[C@@]67CC[N+]8(C9C=CCCC9)CC9=CCO[C@H]([C@@H]([C@H]56)[C@H]9C[C@@H]78)N4c4ccccc4)[C@H]1C[C@@H]32.[Br-].[Br-] (some centres undefined) show?
2300

Bench note: what IC50 did CC(=O)OCC[N+]12CC[C@@H]3[C@@H]4[C@@H]5[C@@H](OCC=C(C1)[C@@H]5C[C@@H]32)N1c2ccccc2[C@@]23CC[N+]5(CCOC(C)=O)CC6=CCO[C@H]([C@@H]([C@H]12)[C@H]6C[C@@H]35)N4c1ccccc1.[Br-].[Br-] (some centres undefined) show?
1600

Bench note: what IC50 did C=CC[N+]12CC[C@@H]3[C@@H]4[C@@H]5[C@@H](OCC=C(C1)[C@@H]5C[C@@H]32)N1c2ccccc2[C@@]23CCN5CC6=CCO[C@H]([C@@H]([C@H]12)[C@H]6C[C@H]53)N4c1ccccc1.[Br-] (some centres undefined) show?
340

* * *

target: Neuronal acetylcholine receptor subunit alpha-7 (Homo sapiens); test: Antagonist activity at human alpha-7 nAChR in tsA201 cells coexpressed with Ric3 by FMP assay; type: functional, cell-based; conditions: read-out: pIC50 (converted)
QUANTITY MEASURED: IC50 (µM)
Report the value in µM with no unit label.

Bench note: what IC50 did OC/C=C1/C[N+]2(C3C=CCCC3)CC[C@@H]3[C@@H]4/C(=C\N5c6ccccc6[C@@]67CC[N+]8(C9C=CCCC9)CC9=CCO[C@H]([C@@H]([C@H]56)[C@H]9C[C@@H]78)N4c4ccccc4)[C@H]1C[C@@H]32.[Br-].[Br-] (some centres undefined) show?
2.34

Bench note: what IC50 did C[N+]12CCC34c5ccccc5N5/C=C6/[C@H]7C[C@H]8[C@@]9(CC[N+]8(C)C/C7=C/CO)c7ccccc7N(/C=C(/[C@@H](C[C@@H]31)/C(=C\CO)C2)[C@H]54)[C@@H]69.[Cl-].[Cl-] (some centres undefined) show?
9.55

Bench note: what IC50 did C[N+]12CC[C@@H]3[C@@H]4[C@@H]5[C@@H](OCC=C(C1)[C@@H]5C[C@@H]32)N1c2ccccc2[C@@]23CC[N+]5(C)CC6=CCO[C@H]([C@@H]([C@H]12)[C@H]6C[C@@H]35)N4c1ccccc1.[I-].[I-] (some centres undefined) show?
1.48

Bench note: what IC50 did C=CC[N+]12CC[C@@]34c5ccccc5N5/C=C6/[C@H]7C[C@H]8[C@@]9(CC[N@@+]8(CC=C)C/C7=C/CO)c7ccccc7N(/C=C(/[C@@H](C[C@@H]31)/C(=C\CO)C2)[C@H]54)[C@@H]69 (some centres undefined) show?
4.07
